System: Hsp90 in HEPG2 lysate; note: unit not given here
Conditions: HepG2 lysate, 4.115 nM
Quick reference: FP signal (raw) of the listed items.
ENDPOINT_NAME: FP signal (raw)

>>> df
                                   molecule  value_measured
0  CC1(C)CC(=O)c2c(C(F)(F)F)nn(-c3ccc(C(N)=O)c(N[C@H]4CC[C@H](OC(=O)CN)CC4)c3)c2C1             206
1  COc1ccc(CON=C2C=CC=CC3OC3CC(C)OC(=O)c3c(O)cc(O)cc3C2)cc1 (stereo not drawn)             208
2  COc1ccc(CON=C2C=CC=CC3OC3CC(C)OC(=O)c3c(O)cc(O)c(Cl)c3C2)cc1 (mixture of isomers)             207
3  CCON=C1/C=C/C=C\[C@H]2O[C@H]2C[C@@H](C)OC(=O)c2c(O)cc(O)c(Cl)c2C1             150
4  CC1CC2OC2C=CC=CC(=NOCc2ccccc2)Cc2c(Cl)c(O)cc(O)c2C(=O)O1 (mixture of isomers)             205
5  CCNC(=O)c1noc(-c2cc(C(C)C)c(O)cc2O)c1-c1ccc(CN2CCOCC2)cc1 [AUY922, reference compound]             168
6  Cc1ccc(CON=C2C=CC=CC3OC3CC(C)OC(=O)c3c(O)cc(O)c(Cl)c3C2)cc1 (mixture of isomers)             211
7  CC1(C)CC(=O)c2c(C(F)(F)F)nn(-c3ccc(C(N)=O)c(N[C@H]4CC[C@H](O)CC4)c3)c2C1 [SNX-2112, reference compound]             201
8  CC1CC2OC2C=CC=CC(=NOCCN2CCCC2=O)Cc2c(Cl)c(O)cc(O)c2C(=O)O1 (stereo not drawn) [KF58333, reference compound]             188

---

Tested on: Hsp90 in HEPG2 lysate; note: unit not given here
Conditions: HepG2 lysate, 12.346 nM
Entries and their FP signal (raw)
ENDPOINT_NAME: FP signal (raw)

>>> print(df.to_string())
                                   molecule    endpoint_name  value_measured
0  CCON=C1/C=C/C=C\[C@H]2O[C@H]2C[C@@H](C)OC(=O)c2c(O)cc(O)c(Cl)c2C1 [compound 333]  FP signal (raw)             107
1  CC1(C)CC(=O)c2c(C(F)(F)F)nn(-c3ccc(C(N)=O)c(N[C@H]4CC[C@H](O)CC4)c3)c2C1 [SNX-2112, reference compound]  FP signal (raw)             174
2  CC1CC2OC2C=CC=CC(=NOCc2cccc(F)c2)Cc2c(Cl)c(O)cc(O)c2C(=O)O1 (mixture of isomers) [compound 227]  FP signal (raw)             202

---

Target: Hsp90 in C. albicans (SC5314) lysate (Candida albicans)
Construct: endogenous in cells; host or cells: C. albicans SC5314 whole-cell lysate
Sequence (P46598 whole entry): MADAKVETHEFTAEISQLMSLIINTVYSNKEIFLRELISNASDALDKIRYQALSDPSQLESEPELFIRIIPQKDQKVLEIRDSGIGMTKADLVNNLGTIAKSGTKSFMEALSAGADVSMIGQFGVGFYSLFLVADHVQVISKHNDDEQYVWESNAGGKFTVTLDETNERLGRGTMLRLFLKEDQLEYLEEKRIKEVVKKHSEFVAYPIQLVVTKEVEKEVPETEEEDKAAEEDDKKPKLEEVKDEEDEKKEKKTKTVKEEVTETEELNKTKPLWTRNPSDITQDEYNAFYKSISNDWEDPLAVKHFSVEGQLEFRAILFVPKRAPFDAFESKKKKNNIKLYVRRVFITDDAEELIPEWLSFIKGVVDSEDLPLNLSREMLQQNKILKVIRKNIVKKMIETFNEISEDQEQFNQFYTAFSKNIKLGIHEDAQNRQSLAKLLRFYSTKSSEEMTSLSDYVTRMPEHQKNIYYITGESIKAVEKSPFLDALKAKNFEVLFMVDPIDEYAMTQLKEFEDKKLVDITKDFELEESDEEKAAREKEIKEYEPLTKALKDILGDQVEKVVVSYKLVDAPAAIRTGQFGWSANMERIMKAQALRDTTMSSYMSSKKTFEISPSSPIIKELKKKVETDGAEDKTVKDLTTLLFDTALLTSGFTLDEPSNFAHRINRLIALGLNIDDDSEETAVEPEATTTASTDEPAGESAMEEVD
Assay: biochemical
Type: binding
Conditions: SC5314 lysate, 1000 nM
# key: entry, value: FP signal (raw)

COMPOUND	FP signal (raw)
CCON=C1/C=C/C=C\[C@H]2O[C@H]2C[C@@H](C)OC(=O)c2c(O)cc(O)c(Cl)c2C1 [compound 333]	36
CC1CC2OC2C=CC=CC(=NOCc2ccccc2)Cc2c(Cl)c(O)cc(O)c2C(=O)O1 (mixture of isomers) [compound 217]	42
CC1CC2OC2C=CC=CC(=NOCCN2CCCC2=O)Cc2c(Cl)c(O)cc(O)c2C(=O)O1 (stereo not drawn) [KF58333, reference compound]	37
CCNC(=O)c1noc(-c2cc(C(C)C)c(O)cc2O)c1-c1ccc(CN2CCOCC2)cc1 [AUY922, reference compound]	33
COC1=C2C[C@@H](C)C[C@H](OC)[C@H](O)[C@@H](C)/C=C(\C)[C@H](OC(N)=O)[C@@H](OC)/C=C\C=C(/C)C(=O)NC(=CC1=O)C2=O [geldanamycin, reference compound]	30
COc1ccc(CON=C2C=CC=CC3OC3CC(C)OC(=O)c3c(O)cc(O)cc3C2)cc1 (stereo not drawn) [CMLD013075]	69
